# ASSAY SYSTEM: WT STING (Homo sapiens, UniProt Q86WV6, H232R)
# Sequence (Q86WV6 whole entry H232R): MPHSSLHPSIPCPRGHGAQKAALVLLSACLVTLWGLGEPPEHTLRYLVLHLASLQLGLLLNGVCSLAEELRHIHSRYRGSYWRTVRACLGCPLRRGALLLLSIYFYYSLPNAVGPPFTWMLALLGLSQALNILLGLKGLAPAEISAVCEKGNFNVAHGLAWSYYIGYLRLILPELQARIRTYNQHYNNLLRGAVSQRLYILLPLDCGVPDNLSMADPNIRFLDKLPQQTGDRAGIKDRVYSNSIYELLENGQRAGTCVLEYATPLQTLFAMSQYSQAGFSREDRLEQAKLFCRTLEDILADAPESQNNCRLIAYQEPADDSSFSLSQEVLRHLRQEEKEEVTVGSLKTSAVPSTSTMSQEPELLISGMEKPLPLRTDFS
# ASSAY COMMENT: 293T WT STING standard reporter assay
# Type: cell-based
# Design: host or cells: 293T (ATCC CRL-3216), stably transfected, with 4xISRE firefly luciferase reporter
# CONDITION NOTES: 293T wtSTING-FL cells, ISRE firefly luciferase; no digitonin; 7 hours with compounds; 8-point curve
PROPERTY LABEL: EC50 (nM)

COMPOUND: Nc1ncnc2c1ncn2[C@@H]1C[C@@H]2COP(=O)(S)O[C@@H]3[C@@H](COP(=O)(S)O[C@H]2[C@H]1F)C[C@@H](n1cnc2c(N)ncnc21)[C@@H]3F (single isomer, unassigned) [Compound 128b]
EC50, nM: 400

I: Nc1nc2c(ncn2[C@@H]2C[C@@H]3COP(=O)(S)O[C@H]4[C@@H](F)[C@H](n5cnc6c(N)ncnc65)O[C@@H]4COP(=O)(S)O[C@H]3C2)c(=O)[nH]1 (single isomer, unassigned) [Compound 129d]
II: Nc1ncnc2c1ncn2[C@@H]1C[C@@H]2COP(=O)(O)O[C@H]3[C@@H](F)[C@H](n4cnc5c(N)ncnc54)O[C@@H]3COP(=O)(S)O[C@H]2[C@H]1F (single isomer, unassigned) [Compound 130b]
III: CC(C)OC(=O)OCOP1(=O)OC[C@H]2O[C@@H](n3cnc4c(N)ncnc43)[C@H](F)[C@@H]2OP(=O)(OCOC(=O)OC(C)C)OC[C@H]2C[C@@H](n3cnc4c(N)ncnc43)[C@H](F)[C@@H]2O1 (single isomer, unassigned) [Compound 143a]
Highest EC50 first, then in falling order down to the smallest. Please list the labels in the order you were asked to rank them.
II, I, III
(II: 1200 nM, I: 300 nM, III: 100 nM)
